# Tested on: cotton
# PROTOCOL NOTES: Test C preemergence/postemergence greenhouse plant response rating 0 to 100
# Format: in vivo, Gossypium hirsutum
# TEST PARAMETERS: Rate 16 g/ha; POSTEMERGENCE
# Description: The compounds evaluated in this test were formulated in a non-phytoxic solvent and applied to the soil surface before plant seedlings emerged (preemergence application), to water that covered the soil surface (flood application), and to plants that were in the one-to-four leaf stage (postemergence application). A sandy loam soil was used for the preemergence and postemergence tests, while a silt loam soil was used in the flood test. […]
REPORTED METRIC: Plant response rating (0 to 100), Cotton

Use these answered entries as a reference point.
| COMPOUND | Plant response rating (0 to 100), Cotton |
| --- | --- |
| CC(C)COc1cc(-c2nn3c(c2Cl)CCCC3)c(F)cc1Cl | 100 |
| CC(C)N1C(=O)COc2cc(F)c(-c3nn4c(c3Cl)CCCC4)cc21 | 100 |
| C#CCN1C(=O)COc2cc(F)c(-c3nn4c(c3Br)CCCC4)cc21 | 100 |
| C=C(Cl)COc1cc(-c2nn3c(c2Cl)CCCC3)c(F)cc1Cl | 100 |
| CC(C)OC(=O)COc1cc(-c2nn3c(c2Cl)CCCC3)c(F)cc1Cl | 100 |
| COC(=O)c1cc(-c2nn3c(c2Cl)CCCC3)c(F)cc1Cl | 90 |
| C#CC(C)Oc1cc(-c2nn3c(c2Br)CCCC3)c(F)cc1Cl (stereo not shown) | 85 |
| C#CC(C)N1C(=O)COc2cc(F)c(-c3nn4c(c3Cl)CCCC4)cc21 (stereo not shown) | 100 |

(Q) Return Plant response rating (0 to 100), Cotton for the following compound: CCC(C)Oc1cc(-c2nn3c(c2Cl)CCCC3)c(F)cc1Cl (stereo not shown)
(A) 100

(Q) Return Plant response rating (0 to 100), Cotton for the following compound: Fc1cc(Cl)c(OCCCl)cc1-c1nn2c(c1Cl)CCCC2
(A) 90
